Just for reference, the MegaScale stability set (Tsuboyama et al. 2023) is where these values come from.

B1: EEHEE_rd4_0647 (parent)
chain: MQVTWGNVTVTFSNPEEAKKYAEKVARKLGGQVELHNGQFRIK

variants of: B1; test: folding stability dG (cDNA display proteolysis); higher = more stable; conditions: PBS, room temperature
Entries and their measured folding stability dG follow.
Could you give me the number in kcal/mol? Just the number is fine.

Examples from the recorded data:
H36L
2.89
N7D
2.58
K43Y
2.88
V10H
2.15

Consider the additional variant presented here.
Form: variant = `G6Q` ; folding stability dG = 1.99
